Tested on: ATP;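 further: ATP exposure 15 min at 22 °C before imaging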
experimentNotes: switch fluorescence ratio, 500 uM ATP over buffer (Cy3 cluster intensity, sum of 5 cycles each) (fold (ratio)); higher = stronger signal-on switching upon ATP binding; sequences stand for … in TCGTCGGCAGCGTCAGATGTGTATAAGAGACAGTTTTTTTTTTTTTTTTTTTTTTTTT…TC
studyConditions: aptamer strand: ATP DNA aptamer (quencher-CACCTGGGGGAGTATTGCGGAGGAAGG + anchor), 100 nM annealed; ATP concentration: 500 uM
recordedEndpoint: switch fluorescence ratio

sequence=TAATTTATCG endpointresult=1.04
sequence=TCCGGACCTC endpointresult=1.5
sequence=ATTTCACAAT endpointresult=0.98
sequence=TGCATGCAGG endpointresult=1.02
sequence=AAGGATAATG endpointresult=0.976
sequence=ATGGTCCCTG endpointresult=0.997
sequence=TGGCAATTAG endpointresult=1.1
sequence=TTTCTTCGGG endpointresult=1
sequence=GACGTATCAA endpointresult=1.04
sequence=TTCTATTCTT endpointresult=1.02

* * *

Test system: ATP;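 further: ATP exposure 15 min at 22 °C before imaging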
experimentNotes: switch fluorescence ratio, 500 uM ATP over buffer (Cy3 cluster intensity, sum of 5 cycles each) (fold (ratio)); higher = stronger signal-on switching upon ATP binding; sequences stand for … in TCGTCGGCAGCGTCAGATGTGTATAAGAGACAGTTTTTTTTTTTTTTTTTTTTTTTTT…TC
studyConditions: aptamer strand: ATP DNA aptamer (quencher-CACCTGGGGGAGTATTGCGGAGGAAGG + anchor), 100 nM annealed; ATP concentration: 500 uM
switch fluorescence ratio reference
recordedEndpoint: switch fluorescence ratio

sequence=GTATTTAGGA studytarget=ATP recordedendpoint="switch fluorescence ratio" endpointresult=0.992
sequence=GCTAGATTTA studytarget=ATP recordedendpoint="switch fluorescence ratio" endpointresult=0.987
sequence=GGGGCCGTTA studytarget=ATP recordedendpoint="switch fluorescence ratio" endpointresult=1.01
sequence=TTGTTGAAGG studytarget=ATP recordedendpoint="switch fluorescence ratio" endpointresult=0.998
sequence=GGCGGGGGCT studytarget=ATP recordedendpoint="switch fluorescence ratio" endpointresult=0.99
sequence=TCAAATTCGG studytarget=ATP recordedendpoint="switch fluorescence ratio" endpointresult=1.01
sequence=AAGGGATGAT studytarget=ATP recordedendpoint="switch fluorescence ratio" endpointresult=0.978
sequence=TCAGAAAGTG studytarget=ATP recordedendpoint="switch fluorescence ratio" endpointresult=1
sequence=CAGGGGATGT studytarget=ATP recordedendpoint="switch fluorescence ratio" endpointresult=0.985
sequence=CGTTGCGAAA studytarget=ATP recordedendpoint="switch fluorescence ratio" endpointresult=1.02
sequence=ACATAATTGA studytarget=ATP recordedendpoint="switch fluorescence ratio" endpointresult=1.03
sequence=ACTGGTTAGT studytarget=ATP recordedendpoint="switch fluorescence ratio" endpointresult=1
sequence=TTTTTGCGAA studytarget=ATP recordedendpoint="switch fluorescence ratio" endpointresult=1.03
sequence=TTTCCCGACG studytarget=ATP recordedendpoint="switch fluorescence ratio" endpointresult=1.12
sequence=TGTAACGGGA studytarget=ATP recordedendpoint="switch fluorescence ratio" endpointresult=1.01
sequence=GGGAAAACCA studytarget=ATP recordedendpoint="switch fluorescence ratio" endpointresult=1.01
sequence=TTTCATAAGT studytarget=ATP recordedendpoint="switch fluorescence ratio" endpointresult=0.999
sequence=GATGGCCGTG studytarget=ATP recordedendpoint="switch fluorescence ratio" endpointresult=0.978
sequence=AATTTACTCT studytarget=ATP recordedendpoint="switch fluorescence ratio" endpointresult=1.07
sequence=TGGGGATTTT studytarget=ATP recordedendpoint="switch fluorescence ratio" endpointresult=0.998

* * *

Test system: ATP;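 further: ATP exposure 15 min at 22 °C before imaging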
experimentNotes: switch fluorescence ratio, 500 uM ATP over buffer (Cy3 cluster intensity, sum of 5 cycles each) (fold (ratio)); higher = stronger signal-on switching upon ATP binding; sequences stand for … in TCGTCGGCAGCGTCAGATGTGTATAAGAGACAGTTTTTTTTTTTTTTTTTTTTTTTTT…TC
studyConditions: aptamer strand: ATP DNA aptamer (quencher-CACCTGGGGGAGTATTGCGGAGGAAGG + anchor), 100 nM annealed; ATP concentration: 500 uM
recordedEndpoint: switch fluorescence ratio

sequence=TGGGGGAAAC endpointresult=1.01
sequence=GCACACCGAG endpointresult=1.08
sequence=TGTGGTACCA endpointresult=1.01
sequence=GATGTGATTT endpointresult=1.08
sequence=GGGGTTAAAC endpointresult=1.04
sequence=GTGCTTGCGG endpointresult=1.01
sequence=TTGTGGTTTG endpointresult=0.992
sequence=TAGGTAACCG endpointresult=0.943
sequence=GCCGCAGGGG endpointresult=2.61
sequence=GCGGAATGCA endpointresult=0.997
sequence=TTTTTTGCAA endpointresult=1.06
sequence=TTGGTATTTG endpointresult=0.993
sequence=TGTGAGGG endpointresult=1.03
sequence=TATTTTGTTT endpointresult=0.99
sequence=ATTCAGGGCT endpointresult=1.01
sequence=ACAGTTATTG endpointresult=1.02
sequence=CCGAAAGCCG endpointresult=1.11
sequence=GCGAGAACTA endpointresult=0.967
sequence=GTTACGAGTT endpointresult=0.977
sequence=GAACTGCATA endpointresult=1.09
sequence=GGTACTCGTT endpointresult=0.991
sequence=CTAAAGTTGG endpointresult=0.995
sequence=CAAAGGGGCA endpointresult=1.05
sequence=GGATTCGAAG endpointresult=0.995
sequence=TAAAAGGTTT endpointresult=1
sequence=TATATTTCTG endpointresult=0.986
sequence=TGGTTGTCGC endpointresult=0.991
sequence=AATGTAATAA endpointresult=1.05
sequence=CAATTTGTGC endpointresult=1.02
sequence=AACTGAGTAG endpointresult=1.01
sequence=CGTCCGAAGT endpointresult=2.03
sequence=TTGCTTCAAT endpointresult=0.983
sequence=ATTGAGATGC endpointresult=0.938
sequence=GTGGCGAAGG endpointresult=0.993
sequence=GAAAAGGGT endpointresult=1.08
sequence=CACTAACCAT endpointresult=1.09
sequence=ATTTAGAGGT endpointresult=0.965
sequence=TTTACGCGGG endpointresult=1.04
sequence=TACGCGGTTG endpointresult=1.07
sequence=GCAGTATTCC endpointresult=1.66
sequence=TCTTAGTAC endpointresult=1.05
sequence=ATCATGGCGG endpointresult=0.99
sequence=TAGTTTTACC endpointresult=1

* * *

Test system: ATP;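 further: ATP exposure 15 min at 22 °C before imaging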
experimentNotes: switch fluorescence ratio, 500 uM ATP over buffer (Cy3 cluster intensity, sum of 5 cycles each) (fold (ratio)); higher = stronger signal-on switching upon ATP binding; sequences stand for … in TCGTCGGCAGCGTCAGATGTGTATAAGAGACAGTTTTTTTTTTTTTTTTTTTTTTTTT…TC
studyConditions: aptamer strand: ATP DNA aptamer (quencher-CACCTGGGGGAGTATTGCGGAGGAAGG + anchor), 100 nM annealed; ATP concentration: 500 uM
recordedEndpoint: switch fluorescence ratio

sequence=TTTTCCGGCC endpointresult=1.72
sequence=GGGGTGAATC endpointresult=1.03
sequence=GCTGCAAGGG endpointresult=1.07
sequence=AGTCGTATTT endpointresult=0.963
sequence=TAGGGTGTGT endpointresult=0.952
sequence=GCACATGGCA endpointresult=1.02
sequence=AAGTTCGTTG endpointresult=1.01
sequence=TCTGGGTGAT endpointresult=1.03
sequence=TTATAGGGG endpointresult=1
sequence=TGGTTTCTTT endpointresult=1.01
sequence=AGGGGGGCCG endpointresult=1.08
sequence=GGGGTTTCTG endpointresult=0.986
sequence=GTTGGGGATG endpointresult=1.02
sequence=TGAAAAGCGC endpointresult=1.01
sequence=CAATGCAGGG endpointresult=1.03
sequence=AGGGATAAAA endpointresult=1.02
sequence=CGGTCTCCGG endpointresult=1.03
sequence=TTTGTTCGGA endpointresult=0.979
sequence=TTTCATTTTG endpointresult=1.03
sequence=CATCTAAGGG endpointresult=0.983
sequence=CACGGCCCAA endpointresult=0.922

* * *

Test system: ATP;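 further: ATP exposure 15 min at 22 °C before imaging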
experimentNotes: switch fluorescence ratio, 500 uM ATP over buffer (Cy3 cluster intensity, sum of 5 cycles each) (fold (ratio)); higher = stronger signal-on switching upon ATP binding; sequences stand for … in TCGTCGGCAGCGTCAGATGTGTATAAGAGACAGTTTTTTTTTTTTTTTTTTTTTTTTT…TC
studyConditions: aptamer strand: ATP DNA aptamer (quencher-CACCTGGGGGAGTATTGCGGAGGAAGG + anchor), 100 nM annealed; ATP concentration: 500 uM
Label 1 when switch fluorescence ratio is at or above 1; otherwise label -1.

sequence=ACGTTCGGAG discretelabel=1
sequence=GTGGATGCGG discretelabel=-1
sequence=GGTTGTCTGC discretelabel=-1
sequence=GGGGACGGAC discretelabel=1
sequence=AGGCGTTTAG discretelabel=1
sequence=GACACTGCCC discretelabel=1
sequence=AAGTACTCCA discretelabel=1
sequence=CCTCGGGTTA discretelabel=1
sequence=AAAACGACAG discretelabel=1
sequence=TTCCGAGCTA discretelabel=1
sequence=GGGGTGGTGT discretelabel=1
sequence=ACCTCCCGGG discretelabel=1
